# Test system: AGS
# protocol text: Cell growth inhibition assay (AGS)
# Assay type: cell-based
# assay conditions: 6 days incubation, CellTiter-Glo
# Experimental: 4. Cell Growth Inhibition Assay AGS cultured in F12K medium (Gibco) containing 10% fetal bovine serum (Gibco). Cells in culture medium were plated in 96-well plates at a concentration of 500 cells/well ([…]) and allowed to attach overnight. The next day, compounds were diluted in culture medium and added to the plates. After 6 days incubation in a 37° C./5% CO2 cell incubator, the cell viability was detected by CellTiter-Glo® Luminescent Cell Viability Assay kit (Promega). […]
result type: pIC50
Scale for pIC50: -log10 of concentration given in mol/L; no unit attached.

Example results:
Look up and report measured pIC50 for this entry: C#Cc1cccc2cc(O)cc(-c3ccc4c(N5CC6CCC(C5)N6)nc(OCC5(CN6CCC[C@H](F)C6)CC5)nc4c3F)c12
8.36

Look up and report measured pIC50 for this entry: Cc1ccc2cc(O)cc(-c3ccc4c(N5CC6CCC(C5)N6)nc(OCC5(CN6CCOCC6)CC5)nc4c3F)c2c1
7.14

Look up and report measured pIC50 for this entry: C#Cc1cccc2cc(O)cc(-c3c(C4CC4)cc4c(N5CC6CCC(C5)N6)nc(OCC5(CN6CCOCC6)CC5)nc4c3F)c12 (single isomer, unassigned) [Compound 38B]
7.98

Others:
Look up and report measured pIC50 for this entry: C#Cc1cccc2cc(O)cc(-c3c(C#N)cc4c(N5CC6CCC(C5)N6)nc(OCC5(CN6CCOCC6)CC5)nc4c3F)c12 (single isomer, unassigned) [Compound 60B]
7.88

Look up and report measured pIC50 for this entry: C#Cc1cccc2cc(O)cc(-c3c(F)cc4c(N5CC6CCC(C5)N6)nc(OCC5(CN6CCOCC6)CC5)nc4c3F)c12 (single isomer, unassigned) [Compound 41B]
9.17

----------
# target or test system: GDP-loaded HIS-KRAS (G12D, aa 1-169) (Homo sapiens, UniProt P01116, G12D)
# Construct: GDP-loaded HIS-KRAS (G12D, aa 1-169)
# Sequence (P01116 1-169 isoform P01116-2 G12D): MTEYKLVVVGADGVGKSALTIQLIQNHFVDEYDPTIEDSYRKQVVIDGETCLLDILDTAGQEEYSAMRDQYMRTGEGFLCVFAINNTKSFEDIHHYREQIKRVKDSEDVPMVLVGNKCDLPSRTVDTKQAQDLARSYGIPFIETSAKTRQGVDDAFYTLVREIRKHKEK
# protocol text: SOS1 catalyzed nucleotide exchange assay
# assay conditions: SOS1 ExD, TR-FRET, 4 hours at 25° C.
pIC50 reference
Scale for pIC50: -log10 of concentration given in mol/L; no unit attached.

Example results:
Look up and report measured pIC50 for this entry: C#Cc1cccc2cc(O)cc(-c3ccc4c(N5CC6CCC(C5)N6)nc(OC[C@@]56CCCN5C[C@H](F)C6)nc4c3Cl)c12
8.02

Look up and report measured pIC50 for this entry: C#Cc1cccc2cc(O)cc(-c3c(C4CC4)cc4c(N5CC6CCC(C5)N6)nc(OCC5(CN6CCOCC6)CC5)nc4c3F)c12 [Compound 38]
7.86

Look up and report measured pIC50 for this entry: C#Cc1cccc2cc(O)cc(-c3c(F)cc4c(N5CC6CCC(C5)N6)nc(OCC5(CN6CCOCC6)CC5)nc4c3F)c12 (single isomer, unassigned) [Compound 41B]
8.16

Look up and report measured pIC50 for this entry: C#Cc1c(F)ccc2cc(O)cc(-c3ccc4c(N5CC6CCC(C5)N6)nc(OC[C@@]56CCCN5C[C@H](F)C6)nc4c3F)c12
8.06

Look up and report measured pIC50 for this entry: Oc1cc(-c2ccc3c(N4CC5CCC(C4)N5)nc(OCC4(CN5CCOCC5)CC4)nc3c2F)c2c(Cl)cccc2c1
7.78

Look up and report measured pIC50 for this entry: C#Cc1cccc2cc(O)cc(-c3ccc4c(N5CC6CCC(C5)N6)nc(OCC5(CN6CCCC6)CC5)nc4c3F)c12
7.90

Look up and report measured pIC50 for this entry: C#Cc1cccc2cc(O)cc(-c3c(Cl)cc4c(N5CC6CCC(C5)N6)nc(OCC5(CN6CCOCC6)CC5)nc4c3F)c12 [Compound 35]
7.98

Look up and report measured pIC50 for this entry: C#Cc1c(F)ccc2cc(O)cc(-c3ccc4c(N5CC6CCC(C5)N6)nc(OCC5(CN6CCOCC6)CC5)nc4c3F)c12
8.15

Others:
Look up and report measured pIC50 for this entry: C#Cc1cccc2cc(O)cc(-c3c(CO)cc4c(N5CC6CCC(C5)N6)nc(OCC5(CN6CCOCC6)CC5)nc4c3F)c12
8.19

Look up and report measured pIC50 for this entry: C#Cc1cccc2cc(O)cc(-c3ccc4c(N5CC6CCC(C5)N6)nc(OCC5(CN6CCOCC6)CC5)nc4c3F)c12
8.06

----------
# target or test system: GppNp-loaded HIS-KRAS (G12D, aa 1-169) / cRAF RBD (Homo sapiens, UniProt P01116, G12D)
# Construct: GppNp-loaded HIS-KRAS (G12D, aa 1-169)
# protocol text: GTP-KRAS and cRAF interaction assay
# assay conditions: HTRF, 2 hours at 25° C.
# Excerpt: 2. GTP-KRAS and cRAF Interaction Assay […]
Threshold-based label: IC50 under 100 nM gives satisfied, IC50 not under 100 nM gives not satisfied.

Take a look at these entries with their results.
Answer whether the molecule C#Cc1c(F)ccc2cc(O)cc(-c3ccc4c(N5CC6CCC(C5)N6)nc(OCC5(CN6CCC(O)CC6)CC5)nc4c3F)c12 has IC50 strictly less than 100 nM
satisfied

Answer whether the molecule Oc1cc(Cl)c(C(F)(F)F)c(-c2c(Cl)cc3c(N4CC5CCC(C4)N5)nc(OC[C@@]45CCCN4C[C@H](F)C5)nc3c2F)c1 has IC50 strictly less than 100 nM
not satisfied

Answer whether the molecule C#Cc1cccc2cc(O)cc(-c3c(SC(F)(F)F)cc4c(N5CC6CCC(C5)N6)nc(OCC5(CN6CCOCC6)CC5)nc4c3F)c12 (single isomer, unassigned) [Compound 59B] has IC50 strictly less than 100 nM
satisfied

Answer whether the molecule C#Cc1cccc2cc(O)cc(-c3c(CCC#N)cc4c(N5CC6CCC(C5)N6)nc(OCC5(CN6CCOCC6)CC5)nc4c3F)c12 has IC50 strictly less than 100 nM
satisfied

Answer whether the molecule CCc1cccc2cc(O)cc(-c3c(C4CC4)cc4c(N5CC6CCC(C5)N6)nc(OCC5(CN6CCOCC6)CC5)nc4c3F)c12 has IC50 strictly less than 100 nM
not satisfied

Answer whether the molecule C#Cc1cccc2cc(O)cc(-c3c(Cl)cc4c(N5CC6CCC(C5)N6)nc(OCC5(CN6CCOCC6)CC5)nc4c3F)c12 [Compound 35] has IC50 strictly less than 100 nM
not satisfied

Others:
Answer whether the molecule C#Cc1cccc2cc(O)cc(-c3c(C)cc4c(N5CC6CCC(C5)N6)nc(OCC5(CN6CCOCC6)CC5)nc4c3F)c12 (single isomer, unassigned) [Compound 40B] has IC50 strictly less than 100 nM
satisfied

Answer whether the molecule C#Cc1cccc2cc(O)cc(-c3cc4nc(OC[C@@]56CCCN5C[C@H](F)C6)nc(N5CC6CCC(C5)N6)c4cc3F)c12 has IC50 strictly less than 100 nM
not satisfied

----------
# target or test system: GppNp-loaded HIS-KRAS (G12D, aa 1-169) / cRAF RBD (Homo sapiens, UniProt P01116, G12D)
# Construct: GppNp-loaded HIS-KRAS (G12D, aa 1-169)
# protocol text: GTP-KRAS and cRAF interaction assay
# assay conditions: HTRF, 2 hours at 25° C.
result type: pIC50
Scale for pIC50: -log10 of concentration given in mol/L; no unit attached.

Example results:
Look up and report measured pIC50 for this entry: C#Cc1cccc2cc(O)cc(-c3ccc4c(N5CC6CCC(C5)N6)nc(OCC5(CN(C)CCO)CC5)nc4c3F)c12 [Compound 86]
7.01

Look up and report measured pIC50 for this entry: Oc1cc(Cl)c(C(F)(F)F)c(-c2ccc3c(N4CC5CCC(C4)N5)nc(OC[C@@]45CCCN4C[C@H](F)C5)nc3c2F)c1 [Compound 85]
5.66

Look up and report measured pIC50 for this entry: C#Cc1cccc2cc(O)cc(-c3c(Cl)cc4c(N5CC6CCC(C5)N6)nc(OC[C@@]56CCCN5C[C@H](F)C6)nc4c3F)c12 (single isomer, unassigned) [Compound 72A]
5.83

Look up and report measured pIC50 for this entry: C#Cc1c(Cl)ccc2cc(O)cc(-c3ccc4c(N5CC6CCC(C5)N6)nc(OCC5(CN6CCOCC6)CC5)nc4c3F)c12 [Compound 127]
7.80

Others:
Look up and report measured pIC50 for this entry: C#Cc1c(Cl)ccc2cc(O)cc(-c3c(F)cc4c(N5CC6CCC(C5)N6)nc(OCC5(CN6CCOCC6)CC5)nc4c3F)c12 [Compound 126]
7.61

----------
IC50 reference
# Tested on: AGS
# protocol text: Cell growth inhibition assay (AGS)
# Type: cell-based
# assay conditions: Homo sapiens, 144 h, 6 days incubation, CellTiter-Glo
Respond numerically; units are nM and should not be typed.

Example results:
Provide IC50, recorded with AGS, of C#Cc1cccc2cc(O)cc(-c3ccc4c(N5CC6CCC(C5)N6)nc(OCC5(CN6CCOCC6)CC5)nc4c3F)c12
11.1

Provide IC50, recorded with AGS, of C#Cc1c(F)ccc2cc(O)cc(-c3ccc4c(N5CC6CCC(C5)N6)nc(OC[C@@]56CCCN5C[C@H](F)C6)nc4c3F)c12
6.92

Provide IC50, recorded with AGS, of C#Cc1cccc2cc(O)cc(-c3ccc4c(N5CC6CCC(C5)N6)nc(OC[C@@]56CCCN5C[C@H](F)C6)nc4c3F)c12
7

Provide IC50, recorded with AGS, of Oc1cc(-c2c(Cl)cc3c(N4CC5CCC(C4)N5)nc(OCC45CCCN4C[C@H](F)C5)nc3c2F)c2c(Cl)cccc2c1 (some centres unmarked)
14.6

Others:
Provide IC50, recorded with AGS, of C#Cc1c(Cl)ccc2cc(O)cc(-c3ccc4c(N5CC6CCC(C5)N6)nc(OCC5(CN6CCOCC6)CC5)nc4c3F)c12
1.82

Provide IC50, recorded with AGS, of C#Cc1cccc2cc(O)cc(-c3ccc4c(N5CC6CCC(C5)N6)nc(OCC5(CN6CCCC6)CC5)nc4c3F)c12
20.8

Provide IC50, recorded with AGS, of Oc1cc(-c2ccc3c(N4CC5CCC(C4)N5)nc(OCC4(CN5CCOCC5)CC4)nc3c2F)c2c(Cl)cccc2c1
17

Provide IC50, recorded with AGS, of C#Cc1cccc2cc(O)cc(-c3ccc4c(N5CC6CCC(C5)N6)nc(OCC5(CN6CC[C@@H](F)C6)CC5)nc4c3F)c12
4.47
